organism: Rattus norvegicus; assay: DrugMatrix - Regimen: Daily Repeat; format: toxicity, organism-based, Sprague-Dawley; design: regimen Daily Repeat, gender Male, age 6-8 weeks; details: in vivo, po, 0 mg/kg, 120 h, tissue Blood, route oral GAVAGE, dose level Control, time 5 day, vehicle .5 % CMC
Quantity kind: ABSOLUTE SEGMENTED NEUTROPHIL (CELLS/uL)
Report the value in CELLS/uL with no unit label.

Here's what some known entries look like.
Compound	ABSOLUTE SEGMENTED NEUTROPHIL, CELLS/uL
COc1cc(/C=C/C(=O)O)ccc1O [FERULATE]	1067.17
CCN1CCCC1CNC(=O)c1cc(S(N)(=O)=O)ccc1OC (configuration not stated) [SULPIRIDE]	1084.33
Cc1cc2c(s1)Nc1ccccc1N=C2N1CCN(C)CC1 [OLANZAPINE]	1321.67
CC(C)(C#N)c1cc(Cn2cncn2)cc(C(C)(C)C#N)c1 [ANASTROZOLE]	980.67
CC(=O)Nc1ccc2c(c1)Cc1ccccc1-2 [2-ACETYLAMINOFLUORENE]	1225

Please look up its ABSOLUTE SEGMENTED NEUTROPHIL: O=C(O)CCc1nc(-c2ccccc2)c(-c2ccccc2)o1 [OXAPROZIN]
1084.33

Please look up its ABSOLUTE SEGMENTED NEUTROPHIL: CN(C)CCOC(c1ccccc1)c1ccccc1.Cn1c(=O)c2[nH]c(Cl)nc2n(C)c1=O [DIMENHYDRINATE]
1048.5

Please look up its ABSOLUTE SEGMENTED NEUTROPHIL: "NC(=O)CN1CCCC1=O"
1308.17

Please look up its ABSOLUTE SEGMENTED NEUTROPHIL: NC(=O)NC(=O)Cc1ccccc1 [PHENACEMIDE]
966

Please look up its ABSOLUTE SEGMENTED NEUTROPHIL: Cl.NC[C@H]1CC[C@H](C(=O)Oc2ccc(CCC(=O)O)cc2)CC1 [CETRAXATE HYDROCHLORIDE]
1067.17

Please look up its ABSOLUTE SEGMENTED NEUTROPHIL: NCC(CC(=O)O)c1ccc(Cl)cc1 (configuration not stated) [BACLOFEN]
1225

Please look up its ABSOLUTE SEGMENTED NEUTROPHIL: CCOc1cc(N)c(Cl)cc1C(=O)NCC1CN(Cc2ccc(F)cc2)CCO1 (configuration not stated) [MOSAPRIDE]
1225

====

species on record: Rattus norvegicus; test: DrugMatrix - Regimen: Daily Repeat; assay type: toxicity, organism-based, Sprague-Dawley; parameters: regimen Daily Repeat, gender Male, age 6-8 weeks; settings: in vivo, po, 0 mg/kg, 120 h, tissue Blood, route oral GAVAGE, dose level Control, time 5 day, vehicle 100 % WATER
Label key: true (1) means ABSOLUTE LYMPHOCYTE under 8000 CELLS/uL; false (0) means ABSOLUTE LYMPHOCYTE of 8000 CELLS/uL or more.

Compound	Assigned class
NN [HYDRAZINE]	false (0)
C[N+](C)(C)CCOC(N)=O.[Cl-]	true (1)
CCN(CC)C(=S)SSC(=S)N(CC)CC	false (0)
C1CCN2C[C@@H]3C[C@@H](CN4CCCC[C@@H]34)[C@H]2C1	true (1)
CC(Cl)(Cl)Cl	true (1)

Report whether reported ABSOLUTE LYMPHOCYTE is lower than 8000 CELLS/uL (strictly) for "Cc1cn([C@H]2C=C[C@@H](CO)O2)c(=O)[nH]c1=O"
true (1)

Report whether reported ABSOLUTE LYMPHOCYTE is lower than 8000 CELLS/uL (strictly) for "Cc1cc(C(C)(C)C)c(O)c(C)c1CC1=NCCN1"
false (0)

====

organism: Rattus norvegicus; test: DrugMatrix - Regimen: Daily Repeat; type: toxicity, organism-based, Sprague-Dawley; set-up: regimen Daily Repeat, gender Male, age 6-8 weeks; conditions: in vivo, po, 0 mg/kg, 120 h, tissue Blood, route oral GAVAGE, dose level Control, time 5 day, vehicle .5 % CMC
molecules and their reported MEAN CORPUSCULAR VOLUME
Report the value in fL with no unit label.

Here's what some known entries look like.
Molecule	Quantity kind	Test result
CCN1C[C@]2(COC)[C@H](O)C[C@H](OC)[C@@]34[C@@H]5C[C@@]6(O)[C@H](OC(=O)c7ccccc7)[C@@H]5[C@@](OC(C)=O)([C@@H]([C@H](OC)[C@H]23)[C@@H]14)[C@@H](O)[C@@H]6OC [ACONITINE]	MEAN CORPUSCULAR VOLUME	63.88
CCN(CC)CCNC(=O)c1cc(Cl)c(N)cc1OC [METOCLOPRAMIDE]	MEAN CORPUSCULAR VOLUME	59.12
COc1ccc(Cl)cc1C(=O)NCCc1ccc(S(=O)(=O)NC(=O)NC2CCCCC2)cc1 [GLYBURIDE]	MEAN CORPUSCULAR VOLUME	60.65
CCN1CCCC1CNC(=O)c1cc(S(N)(=O)=O)ccc1OC (stereo unspecified) [SULPIRIDE]	MEAN CORPUSCULAR VOLUME	61.82
CCOc1cc(N)c(Cl)cc1C(=O)NCC1CN(Cc2ccc(F)cc2)CCO1 (stereo unspecified) [MOSAPRIDE]	MEAN CORPUSCULAR VOLUME	61.53

Please look up its MEAN CORPUSCULAR VOLUME: COc1cc(NC(C)CCCN)c2ncccc2c1 (stereo unspecified) [PRIMAQUINE]
59.55

Please look up its MEAN CORPUSCULAR VOLUME: O=C(O)CCc1nc(-c2ccccc2)c(-c2ccccc2)o1 [OXAPROZIN]
61.82

Please look up its MEAN CORPUSCULAR VOLUME: O=C1c2ccccc2C(=O)C1c1ccccc1 [PHENINDIONE]
63.88

Please look up its MEAN CORPUSCULAR VOLUME: CN(C)CCC=C1c2ccccc2COc2ccccc21 [DOXEPIN]
60.47

Please look up its MEAN CORPUSCULAR VOLUME: COc1cc(/C=C/C(=O)O)ccc1O [FERULATE]
63.47

Please look up its MEAN CORPUSCULAR VOLUME: CN(C)CCOC(c1ccccc1)c1ccccc1.Cn1c(=O)c2[nH]c(Cl)nc2n(C)c1=O [DIMENHYDRINATE]
62.7

====

organism: Rattus norvegicus; assay: DrugMatrix - Regimen: Daily Repeat; format: toxicity, organism-based, Sprague-Dawley; design: regimen Daily Repeat, gender Male, age 6-8 weeks; details: in vivo, po, 0 mg/kg, 72 h, tissue Plasma, route oral GAVAGE, dose level Control, time 3 day, vehicle 100 % SALINE
compounds and their reported TOTAL BILIRUBIN
Report the value in mg/dL with no unit label.

Here's what some known entries look like.
Compound	Quantity kind	Units symbol	Test result
Cc1ccnc2c1NC(=O)c1cccnc1N2C1CC1	TOTAL BILIRUBIN	mg/dL	0.18
CCN(CC)N=O	TOTAL BILIRUBIN	mg/dL	0.2

Please look up its TOTAL BILIRUBIN: "CCO"
0.12

Please look up its TOTAL BILIRUBIN: O=[As][O-].[Na+] [SODIUM ARSENITE]
0.12

Please look up its TOTAL BILIRUBIN: CC(CN1c2ccccc2Sc2ccccc21)N(C)C (stereo not given)
0.22

====

species: Rattus norvegicus; assay: DrugMatrix - Regimen: Daily Repeat; format: toxicity, organism-based, Sprague-Dawley; set-up: regimen Daily Repeat, gender Male, age 6-8 weeks; conditions: in vivo, po, 0 mg/kg, 120 h, tissue Blood, route oral GAVAGE, dose level Control, time 5 day, […]
molecules and their reported ABSOLUTE EOSINOPHIL
Report the value in CELLS/uL with no unit label.

Molecule	Quantity kind	Units symbol	Test result
CO[C@H]1O[C@@H]2O[C@@]3(C)CC[C@H]4[C@H](C)CC[C@@H]([C@H]1C)[C@@]24OO3	ABSOLUTE EOSINOPHIL	CELLS/uL	183.33
c1ccc2c(c1)Nc1ccccc1S2 [PHENOTHIAZINE]	ABSOLUTE EOSINOPHIL	CELLS/uL	0

Shift focus to the following entry.
Please look up its ABSOLUTE EOSINOPHIL: CC#C[C@]1(O)CC[C@H]2[C@@H]3CCC4=CC(=O)CCC4=C3[C@@H](c3ccc(N(C)C)cc3)C[C@@]21C [MIFEPRISTONE]
37.5

====

compounds and their reported ABSOLUTE SEGMENTED NEUTROPHIL
species on record: Rattus norvegicus; experiment: DrugMatrix - Regimen: Daily Repeat; assay type: toxicity, organism-based, Sprague-Dawley; set-up: regimen Daily Repeat, gender Male, age 6-8 weeks; settings: in vivo, po, 0 mg/kg, 120 h, tissue Blood, route oral GAVAGE, dose level Control, time 5 day, […]
Report the value in CELLS/uL with no unit label.

Here's what some known entries look like.
Compound	Units symbol	Test result
O=C(Nc1ccc(Cl)c(Cl)c1)c1cc(Cl)cc(Cl)c1O [3,3',4',5-TETRACHLOROSALICYLANILIDE]	CELLS/uL	1340.67
CCOC(=O)C1=C(C)NC(C)=C(C(=O)OCC)C1c1ccccc1/C=C/C(=O)OC(C)(C)C [LACIDIPINE]	CELLS/uL	614

Shift focus to the following entry.
Please look up its ABSOLUTE SEGMENTED NEUTROPHIL: "CO[C@H]1O[C@@H]2O[C@@]3(C)CC[C@H]4[C@H](C)CC[C@@H]([C@H]1C)[C@@]24OO3"
1642
